TARGET DESC: RORγt (RORγ-LBD chimeric receptor) (Homo sapiens)
Construct: host or cells: HEK293T
Sequence (P51449 269-508 limits assumed): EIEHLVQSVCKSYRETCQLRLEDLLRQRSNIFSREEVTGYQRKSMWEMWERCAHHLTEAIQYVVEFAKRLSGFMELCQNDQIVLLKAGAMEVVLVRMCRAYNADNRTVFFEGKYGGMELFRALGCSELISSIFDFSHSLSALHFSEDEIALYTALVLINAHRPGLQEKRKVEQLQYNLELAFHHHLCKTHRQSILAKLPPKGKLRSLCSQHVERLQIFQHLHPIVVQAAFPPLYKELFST
PROTOCOL: Luciferase reporter gene assay of RORγt agonistic activity in HEK293T cells
Assay type: cell-based
Set-up: dose or concentration left out as unconfirmed
PROTOCOL CONDITIONS: HEK-293T
MEASURED ATTRIBUTE: Emax (%)

* CCS(=O)(=O)c1ccc(-c2c(Cl)cc(NC(=O)Cc3ccc(S(=O)(=O)CC)cn3)cc2Cl)cc1 | 69.6
* CCS(=O)(=O)c1ccc(CC(=O)Nc2cc(Cl)c(-c3ccc(S(=O)(=O)C4CC4)cc3)c(Cl)c2)nc1 | 51.2
* CS(=O)(=O)c1ccc(C(CO)C(=O)Nc2cc(Cl)c(-c3ccc(S(=O)(=O)C4CC4)cc3)c(Cl)c2)cc1 (stereo not shown) [Example 33] | 69.8
* COCC(C(=O)Nc1cc(Cl)c(-c2ccc(S(C)(=O)=O)cc2)c(Cl)c1)c1ccc(S(=O)(=O)CC2CC2)cc1 (stereo not shown) | 137
* CCS(=O)(=O)c1ccc(C(COC)C(=O)Nc2cc(Cl)c(-c3ccc(S(=O)(=O)C4CC4)cc3)c(Cl)c2)cc1 (single isomer, unassigned) [Example 40] | 77.5
* CCS(=O)(=O)c1ccc(CC(=O)Nc2cc(Cl)c(-c3ccc(S(=O)(=O)CC)cc3)c(Cl)c2)cc1 | 87.1
* CC(C)Cc1ccc(-c2c(Cl)cc(NC(=O)Cc3ccc(S(C)(=O)=O)cc3)cc2Cl)cc1C#N [LIT-00093, reference compound] | 83.9

Numbers sourced from patent US20220402867A1.
